System: HCT-15
I'd appreciate it if you marked entries Fulfilled when GI50 is lower than 70 µM and Not fulfilled when it is not.

INSERT INTO results (molecule, category_label) VALUES
  ('O=C(/C=C/c1ccc2c(c1)OCO2)Cc1nc2ncccc2[nH]c1=O', 'Not fulfilled'),
  ('CCOC(=O)C(C)(C)Oc1ccc(/C=C/C(=O)c2ccc(Cl)cc2)cc1', 'Fulfilled'),
  ('COc1ccc(C2=Nn3c(nc4sc(C)c(C)c4c3=O)SC2)cc1', 'Not fulfilled'),
  ('O=C(Nc1cc(Cl)ccc1Cl)c1cc2cccc(Br)c2oc1=O', 'Not fulfilled'),
  ('CCOC(=O)c1nc2ccccc2nc1Nc1cc(OC)c(OC)c(OC)c1', 'Not fulfilled'),
  ('O=c1[nH]n(Cc2ccccn2)c2ccc([N+](=O)[O-])cc12', 'Not fulfilled'),
  ('CC(=O)O[C@@H]1C(C2CCCCC2)C=[N+]([O-])O[C@@H]1OC1CCCC1(c1ccccc1)c1ccccc1 (some centres undefined)', 'Fulfilled'),
  ('O=S(=O)(N=S(c1ccc(Cl)cc1)c1ccc(Cl)cc1)c1ccccc1', 'Fulfilled'),
  ('CC(=O)OCCCC(NC(=O)OC(C)(C)C)C(=O)NC(CCCOC(C)=O)C(=O)NC(Cc1ccc([N+](=O)[O-])cc1)C(=O)NCC(=O)OCc1ccccc1 (centres undefined)', 'Fulfilled');

---

Tested on: MCF7
Assay: NCI tumour cell line growth inhibition, 48 h
Activity calls are given as the source filed them. Cut-off read from the data, not from the text of the source: active = GI50 up to about 1.1 µM and inactive = higher.
Catalogue of GI50 readings, one per entry.
property name: GI50

INSERT INTO results (molecule, subject_of_test, result) VALUES
  ('CCNc1nc2ccccc2nc1NCC', 'MCF7', '> 100 µM (inactive)'),
  ('CN(CCCNCc1ccccn1)Cc1ccccc1O', 'MCF7', '43 µM (inactive)'),
  ('C=C1C(=O)OC2C1CCC(C)C1C=CC(=O)C12C (stereo unspecified)', 'MCF7', '3.92 µM (inactive)'),
  ('O=C1/C(=C/c2cccc([N+](=O)[O-])c2)CCCc2ccccc21', 'MCF7', '3.92 µM (inactive)'),
  ('O=C(O)C1C2OC(C(Br)C2Br)C1C(=O)O (stereo unspecified)', 'MCF7', '> 100 µM (inactive)'),
  ('CN(C(=O)c1ccc(Cl)s1)C(=S)N(C)C(=O)c1ccc(Cl)s1', 'MCF7', '> 10 µM (inactive)');

---

Catalogue of GI50 readings, one per entry.
Tested on: HCT-116
Assay: NCI tumour cell line growth inhibition, 48 h
Calls of active or inactive are those of the source. Cut-off read from the data, not from the text of the source: active = GI50 up to about 1.1 µM and inactive = higher.
property name: GI50

INSERT INTO assay_data (compound, property_name, result) VALUES
  ('Cc1cccc(C2NC(=O)c3ccccc3N2)c1 (stereo unspecified)', 'GI50', '3.28 µM (inactive)'),
  ('C/C=C1\CC2C(=O)CCC2C2c3ccccc3OC12 (stereo unspecified)', 'GI50', '> 100 µM (inactive)'),
  ('O=c1[nH]n(Cc2ccccn2)c2ccc([N+](=O)[O-])cc12', 'GI50', '> 100 µM (inactive)'),
  ('C1CC[C@H]2SSC3CCCC[C@H]3SSC2C1 (stereo partly specified)', 'GI50', '> 100 µM (inactive)'),
  ('COC1=CC2(C=CC1=O)CCNC1=C2C(=O)c2nc[nH]c2C1=O (stereo unspecified)', 'GI50', '> 100 µM (inactive)'),
  ('COc1ccc(N2C(=O)C3c4[nH]c5ccccc5c4C4CCC(C(C)(C)C)CC4C3C2=O)c(C)c1 (stereo unspecified)', 'GI50', '> 100 µM (inactive)'),
  ('COc1ccc(/C(Cl)=C(\CN(C)C)c2ccc(OC)c(OC)c2)cc1OC.[B]', 'GI50', '38.8 µM (inactive)'),
  ('CC(C)(C)n1c(=O)n(C(=O)C(Cl)(Cl)Cl)n(C(=O)C(Cl)(Cl)Cl)c1=O', 'GI50', '> 100 µM (inactive)'),
  ('COc1ccc2c(c1)CCc1c(C(C)=O)c3ccccc3n1C2', 'GI50', '25.8 µM (inactive)'),
  ('COc1ccc(/C=N/NC(=O)c2ccc(O)c(CN(C)C)c2)cc1', 'GI50', '> 100 µM (inactive)'),
  ('CCCCC(C(=O)N/N=C/c1ccc([N+](=O)[O-])o1)C(=O)N/N=C/c1ccc([N+](=O)[O-])o1', 'GI50', '1.36 µM (inactive)');

---

System: RXF 393
Experiment: NCI tumour cell line growth inhibition, 48 h
Activity calls are given as the source filed them. Rule as the data show it: active = GI50 up to about 1.1 µM and inactive = higher.
Catalogue of GI50 readings, one per entry.
property name: GI50

INSERT INTO measurements (compound, subject_of_test, property_name, result) VALUES
  ('ClC1=NN=C(c2c[nH]c3ccccc23)CC1NCc1ccccc1 (stereo not given)', 'RXF 393', 'GI50', '> 100 µM (inactive)'),
  ('CC(=O)NC(CCCCN(Cc1ccccc1)C(=O)N(CCCl)N=O)C(=O)NCc1ccccc1 (stereo not given)', 'RXF 393', 'GI50', '14.7 µM (inactive)'),
  ('Cc1ccc(OCC2OC(C#N)C(Oc3ccc(C)cc3)C2Oc2ccc(C)cc2)cc1 (stereo not given)', 'RXF 393', 'GI50', '> 100 µM (inactive)'),
  ('Cn1c(=O)c2c(no[n+]2[O-])n(C)c1=O', 'RXF 393', 'GI50', '27.7 µM (inactive)'),
  ('O=S(=O)(N/C(=N\O)Nc1ccc(Cl)cc1)c1cc(S(=O)(=O)c2ccccc2)cs1', 'RXF 393', 'GI50', '16.3 µM (inactive)');

---

Catalogue of GI50 readings, one per entry.
System: Malme-3M
Assay: NCI tumour cell line growth inhibition, 48 h
Activity calls are given as the source filed them. No stated cut-off is given here; in the data, active = GI50 up to about 1.1 µM and inactive = higher.
property name: GI50

INSERT INTO results (compound, subject_of_test, property_name, result) VALUES
  ('O=C(c1ccccc1)[C@H]1Nc2ccc(Cl)cc2[C@H]2OCCC[C@@H]12', 'Malme-3M', 'GI50', '25.6 µM (inactive)'),
  ('O=C1CCC2(CC1)Cc1ccccc1C2O (stereo unspecified)', 'Malme-3M', 'GI50', '> 100 µM (inactive)'),
  ('COc1ccc2c(c1)CCc1c(C(C)=O)c3ccccc3n1C2', 'Malme-3M', 'GI50', '18.1 µM (inactive)'),
  ('C=CCCC(=O)CC(O)(C(F)(F)F)C(F)(F)F', 'Malme-3M', 'GI50', '> 100 µM (inactive)'),
  ('N#CC1(C#N)C2=C(CCCC2)NC(c2ccc(Br)cc2)C1(C#N)C#N (stereo unspecified)', 'Malme-3M', 'GI50', '1.16 µM (inactive)'),
  ('CN(C)CCOc1ccc(I)cc1Cc1ccccc1', 'Malme-3M', 'GI50', '15.9 µM (inactive)'),
  ('CC1=C(\C=C/C(C)=C/C=C/C(C)=C/C=C/C=C(C)\C=C\C=C(C)/C=C/C2=C(C)CCCC2(C)C)C(C)(C)CCC1', 'Malme-3M', 'GI50', '> 100 µM (inactive)'),
  ('O=C(/C=C/c1ccc2c(c1)OCO2)Cc1nc2ncccc2[nH]c1=O', 'Malme-3M', 'GI50', '> 100 µM (inactive)'),
  ('CSc1cccc(-n2c3nc(=O)n(C)c(=O)c-3nc3ccccc32)c1', 'Malme-3M', 'GI50', '3.04 µM (inactive)'),
  ('CN1C(c2ccccc2)CC(C)(O)CC1c1ccccc1 (stereo unspecified)', 'Malme-3M', 'GI50', '> 100 µM (inactive)'),
  ('Cc1ccc2c(c1CCCC(C)(C)O)C(=O)C(O)=C(C(C)C)C2=O', 'Malme-3M', 'GI50', '> 100 µM (inactive)'),
  ('N=C(N)NCCCC(Nc1c2ccccc2[n+]([O-])c2ccccc12)C(=O)O (stereo unspecified)', 'Malme-3M', 'GI50', '39.4 µM (inactive)'),
  ('O=c1[nH]cnc2c1ncn2[C@H]1CO[C@@H](CO)[C@@H]1O', 'Malme-3M', 'GI50', '> 100 µM (inactive)'),
  ('CC1OC2/C=C\CC(O)C(C)(C)C3CCC(C)C4(O3)O[B-]35OC(C(=O)OC1C2)C1(OC(CCC1C)C(C)(C)C(O)C/C=C\C1CC(OC(=O)C4O3)C(C)O1)O5 (stereo unspecified)', 'Malme-3M', 'GI50', '1.86 µM (inactive)'),
  ('NNC(=O)CCC(=O)Nc1ccc(Cl)cc1Cl', 'Malme-3M', 'GI50', '> 100 µM (inactive)'),
  ('COc1cc(S(=O)(=O)Nc2ccc(-c3csc(/N=C\c4ccccc4)n3)cc2)ccc1Cl', 'Malme-3M', 'GI50', '> 100 µM (inactive)'),
  ('Cc1ccc(C(=O)c2[nH]c(Nc3cc(C)ccn3)c(C(=S)Nc3ccccc3)c2N)cc1', 'Malme-3M', 'GI50', '> 100 µM (inactive)'),
  ('c1ccc2c(c1)C1=NCCN1c1ccccc1-2', 'Malme-3M', 'GI50', '2.64 µM (inactive)'),
  ('CN(C1=NS(=O)(=O)N=C(N(C)c2ccccc2)O1)c1ccccc1', 'Malme-3M', 'GI50', '24.2 µM (inactive)'),
  ('O=C1CC(/C=C/c2ccco2)=C(O)C1=O', 'Malme-3M', 'GI50', '11.6 µM (inactive)'),
  ('CCC1(c2ccc(N)cc2)CCC(=O)NC1=O (stereo unspecified) [AMINOGLUTETHIMIDE]', 'Malme-3M', 'GI50', '2960 µM (inactive)');
